test system: M14 melanoma; assay: NCI-60 one-dose screen, 48 h (100 = growth as untreated, 0 = no growth, -100 = all killed); conditions: 10 µM unless noted
About 83,000 compounds went through this panel and 20% of them were active in at least one assay; those are over-represented in the sample as a whole.
Entries and their growth values follow.

COMPOUND	growth [%]
COC(=O)/C(CCC=C(C)C)=C1\[C@@H](OC(C)=O)C[C@@]2(C)[C@H]1C[C@@H](O)[C@H]1[C@@]3(C)CC[C@H](NCc4ccccc4)[C@@H](C)[C@@H]3CC[C@@]12C	49.8
O=c1oc2ccc(Br)cc2c(=O)n1-c1ccc(F)cc1F	12
O=C1Nc2ccccc2/C1=C/c1cccs1	97.3
O=C(Nc1ccc(Br)cc1F)c1cc(Cl)ccc1O	-28.3
CCN(CC)CCCNc1ccnc2cc3ccccc3cc12	81.9
COc1cc(C2CC(c3ccc(Nc4nc(NCCO)nc(N5CCOCC5)n4)cc3)=NN2c2cc(Cl)cc(Cl)c2)cc(OC)c1OC (centres undefined)	64.9
CNC(=O)c1cc(Oc2ccc(CC(=O)Nc3cc(C(C)(C)C)cn3C)cc2)ccn1	84.7
COc1cc(C2C(C#N)=C(N)OC3=C2C(=O)c2ccccc2C3=O)cc(OC)c1OC (centres undefined)	12.3
COc1cc(C(C)n2cc(-c3ccccc3)nn2)ccc1OC1CCCCC1 (centres undefined)	79.1
O=c1oc2ccc(Cl)cc2c(=O)n1-c1cc(C(F)(F)F)cc(C(F)(F)F)c1	-22.5
CC/C(=C(\CC)c1ccc(OCC[N+](C)(C)C)cc1)c1ccc(OC)cc1	58.1
CN1CCN(Cc2ccc(NC(=O)c3cncc(C#Cc4nc(N)nc5[nH]ncc45)c3)cc2C(F)(F)F)CC1	89.4
COc1ccc(C2Nc3ncnc(N)c3N=C3c4ccccc4C(=O)C32)cc1 (centres undefined)	94.8
COC(=O)/C(=C\c1c(C)[nH]c2ccccc12)S(=O)(=O)c1ccccc1	33.7
CCOC(=O)c1cc2c(n1Cc1ccccc1)-c1oncc1CCC2	68
CCOC(=O)c1sc(-c2ccc(OS(=O)(=O)c3cccs3)c(C=O)c2)nc1C	-17.6
Cn1cc(-c2ccc3ncc(-c4ccc(CC(=O)Nc5cc(C(C)(C)C)no5)cc4)nc3c2)cn1	34.6
O=Cc1c(OCc2cnnn2CC(=O)Nc2ccc(Br)cc2)ccc2ccccc12	98.6
COc1cc(-c2c3c(c(Br)n2Cc2ccccc2)-c2nc(N)sc2CC3)cc(OC)c1OC	90.3
Clc1ccc(Nc2scc3[n+]2CCC3)cc1	103
O=C(CN1C=NC2C(N3CCOCC3)=NC=NC21)c1cccc2ccccc12 (centres undefined)	105
O=C(Nc1ccc(F)cc1F)c1cc(Cl)ccc1O	18.8
CC1CCCCN1CCCNC(=O)c1ccc2c(c1)sc1nc(-c3ccc(F)cc3)cn12 (centres undefined)	97.1
Nc1ccc(-c2nc3cc(Oc4ccc(Oc5ccc6[nH]c(-c7ccc(N)cc7)nc6c5)cc4)ccc3[nH]2)cc1	94
Cc1sc2ncnc(Sc3nc4ccccc4[nH]3)c2c1C	-78.9
O=S(=O)(c1ccc(NC(=S)NC23CC4CC(CC(C4)C2)C3)cc1)N1CCCCC1	72.3
O=c1oc2ccc(-c3ccc(F)cc3F)cc2c(=O)n1-c1cccc(C(F)(F)F)c1	18.3
CCCCCCc1cc2cc(-c3nc4ccccc4[nH]3)c(=Nc3ccccc3C)oc2cc1O	9.12
N#C/C(=C1\SC(=O)CN1c1ccccc1)c1nc2ccccc2s1	91.2
